Experiment: amyloid nucleation score (Sup35N fusion, yeast selection) (log enrichment); library NNK3; higher = more nucleation; inactive = no reads after selection;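 also: zero at mode of non-aggregating sequences after 7 days selection at 30°C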

SUBSTANCE	amyloid nucleation score
QFPSFANIIANCPLGFLWYA	inactive
KLCGHIIYCVV	inactive
GKCLLYRFILILLHP	-0.155
RTLSNFSGKVVLLI	inactive
DVNCALYGKGLDVCRI	inactive
KCGIQLICMWFS	1.47
GAIRLRSVNSNLGWLTAPLR	inactive
HTESTGLSTPWVHL	inactive
LNLVVRHFPTNR	inactive
LLISDMGFNIVVLMTVSCFY	0.049
EWPVNTNVYFCFMYTANFNT	2.63
GKIFMSVTFF	2.43
DNLQVTRCYLADWMSSVT	inactive
LRCVGGSGSEGLVLSRMVTG	inactive
LGTTSYRV	inactive
KWPQLIWSGTYFKPFWSING	inactive
RRVLTARDWVCH	inactive
DRVKACARFGRW	inactive
DDPQVGLNFAQSYALPEYFA	inactive
RDRQFSSSDVPGCEVTGRTD	1.04
QLRASA	inactive
CVSGDCVMIMFYLFSPVAVV	inactive
RQNVWTLVPLVKFRLSNTQT	inactive
SLLYFLRNVKC	inactive
MVIGNVCFIIYGSFNEE	2.33
RNKVHRNG	inactive
IQDHYSDPAN	inactive
HHHRLARTPHDIVPRQKLVV	inactive
SFNMDYHMWIEQGSRWVFTT	inactive
IYGTRGSIKSYDTHSGRCGR	inactive
TLLHDSDVGMQLSGSQRFFS	inactive
VIITSSTVLMFRFLEYRESQ	inactive
AVSAVCSAVCGLMSSSTDMD	0.527
FLTLSSFHRPMVE	inactive
KDTQWALYRNL	inactive
RVIMKIIVTFTA	0.832
LKLYDGSFAFLKCTSFMFNG	1.19

###

Test: amyloid nucleation score (Sup35N fusion, yeast selection) (log enrichment); library NNK2; higher = more nucleation; inactive = no reads after selection

SUBSTANCE	amyloid nucleation score
CPSLRGVVVRSLSTGSSDAR	0.163
CQISGCYWV	5.28
YFPIASALNCSLGCARCCES	0.669
SMEAFYRGFFKTPWSY	-0.2
IVSLLLRQSQ	4.41
ADMIMRYKG	0.879
GRTVQIMDRVFS	-1.12
LASSKEACVHTVMAIVSVGA	2.08
VLWIGFYLNLYLPYLCNHVD	3.37
PGAADRTVRYGSRRPPD	-0.003
GSPLLVNDQSDGMYTSEISF	-1.32
IFCRIDYIYVYLHHVYVTVQ	5.23
ALWTSC	2.35
LASYLRFSISSVIFNTRAIL	-0.315
ALMDCACFVYSRD	-0.199
DYANELVA	0.099
TELKEGLYAGIHFNTGTG	-0.457
LPFFKIMVRSSYCCNYQG	2.29
SEGIADVLSVSCWCYPCRPY	-1.21
LLRTHTSYRL	-0.836
KFRCASWLCRSTKAWRRCGA	4.75
SVYREWLPSSSRVWCMSLSG	-0.317
SIDSRYW	-0.283
FVSRSLNSQGQWFRSMTECR	-0.517
IHLQIWAFFMLRIPPGRNKT	-0.636
AFATRCCSTLIDPSFVIGTG	0.692
DHLGWHEVTVSLELSFFYRV	4.83
QVGFPWFGRQVKDYLLLYKP	0.22
LRESFKRWMLVVAATLYAFK	0.376
ISDGCCGMLNAYCFTLVNCK	4.18
FIMCSDYPYHITPYPWLGPG	-0.59
